Test system: psychLight2
Test: PSYLI2 high-content imaging, agonist mode
Type: cell-based, human
Description: High-Content Imaging Experiments. Glass bottom 96-well plates (P96-1.5H-N, Cellvis) were coated with 50 μg/mL of poly-D-lysine (Sigma, P6407-5MG) and 10 μg/mL laminin (Sigma, L2020) overnight in an incubator (37° C., 5% CO2). […] Once imaging was complete, the images were exported, put into a stack, and analyzed using ImageJ Fiji (ver. 1.51v) by using the rectangle function to draw an ROI around the cell membrane (one cell per image) on both the pre- and posttreatment images. […]
Result Type: ΔF/F PSYLI2 fluorescence, panel of tryptamines

>  <Query Smiles>
CN(C)CCc1c[nH]c2ccc(O)cc12

>  <Observed>
22.3%±2.8%

$$$$
>  <Query Smiles>
NCCc1c[nH]c2ccc(O)cc12

>  <Observed>
46.3%±1.4%

$$$$

Next compound, ΔF/F PSYLI2 fluorescence, panel of tryptamines to be filled in.
ΔF/F PSYLI2 fluorescence, panel of tryptamines for CNCCc1c[nH]c2ccc(O)cc12 is 24.6%±1.7%
